Measured values drawn from patent US20020051978A1 for this set.

Overview of reported classification of cell line as Low(1), Medium(2) or High(3) sensitivity to compound across a group of compounds:
# System: 60 cancer cell lines (NCI 60 cancer cell line series)
# method summary: NCI-DTP in vitro cancer screen, sulforhodamine B (SRB) growth inhibition, 48 hour exposure
# Format: cell-based, human
# test settings: NSCLC NCI-H226 CL1013
Where a name gives a salt, the structure may show the parent alone.
result type: classification of cell line as Low(1), Medium(2) or High(3) sensitivity to compound

compound	tested on	reported measurement
CC[C@]1(O)C[C@H]2CN(CCc3c([nH]c4ccccc34)[C@@](C(=O)OC)(c3cc4c(cc3OC)N(C=O)[C@H]3[C@@](O)(C(=O)OC)[C@H](OC(C)=O)[C@]5(CC)C=CCN6CC[C@]43[C@@H]65)C2)C1 [Vincristine sulfate]	60 cancer cell lines (NCI 60 cancer cell line series)	2
CC[C@@]1(O)C(=O)OCc2c1cc1n(c2=O)Cc2cc3c(CN(C)C)c(O)ccc3nc2-1 [Topotecan]	60 cancer cell lines (NCI 60 cancer cell line series)	2
NC(=O)NO [Hydroxyurea]	60 cancer cell lines (NCI 60 cancer cell line series)	2
CN(Cc1cnc2nc(N)nc(N)c2n1)c1ccc(C(=O)N[C@@H](CCC(=O)O)C(=O)O)cc1 [Methotrexate]	60 cancer cell lines (NCI 60 cancer cell line series)	1
Sc1ncnc2nc[nH]c12 [6-mercaptopurine]	60 cancer cell lines (NCI 60 cancer cell line series)	1
CC[C@]1(O)C[C@@H]2CN(CCc3c([nH]c4ccccc34)[C@@](C(=O)OC)(c3cc4c(cc3OC)N(C)[C@H]3[C@@](O)(C(=O)OC)[C@H](OC(C)=O)[C@]5(CC)C=CCN6CC[C@]43[C@@H]65)C2)C1 [Vinblastine sulfate]	60 cancer cell lines (NCI 60 cancer cell line series)	2
COc1cccc2c1C(=O)c1c(O)c3c(c(O)c1C2=O)C[C@@](O)(C(C)=O)C[C@@H]3O[C@H]1C[C@H](N)[C@H](O)[C@H](C)O1 [Daunorubicin]	60 cancer cell lines (NCI 60 cancer cell line series)	2
N[C@@H](Cc1ccc(N(CCCl)CCCl)cc1)C(=O)O [Melphalan]	60 cancer cell lines (NCI 60 cancer cell line series)	2
O=C1c2c(O)ccc(O)c2C(=O)c2c(NCCNCCO)ccc(NCCNCCO)c21 [Mitoxantrone]	60 cancer cell lines (NCI 60 cancer cell line series)	3

====

# System: 60 cancer cell lines (NCI 60 cancer cell line series)
# method summary: NCI-DTP in vitro cancer screen, sulforhodamine B (SRB) growth inhibition, 48 hour exposure
# Type: cell-based, human
# test settings: cell line NSCLC NCI-H23(I), CL1001
Where a name gives a salt, the structure may show the parent alone.
result type: sensitivity class NSCLC NCI-H23(I) CL1001

molecule	reported measurement
COc1cc([C@@H]2c3cc4c(cc3[C@@H](O[C@@H]3O[C@@H]5CO[C@@H](C)O[C@H]5[C@H](O)[C@H]3O)[C@H]3COC(=O)[C@H]23)OCO4)cc(OC)c1O [Etoposide]	2
CC[C@]1(O)C[C@H]2CN(CCc3c([nH]c4ccccc34)[C@@](C(=O)OC)(c3cc4c(cc3OC)N(C=O)[C@H]3[C@@](O)(C(=O)OC)[C@H](OC(C)=O)[C@]5(CC)C=CCN6CC[C@]43[C@@H]65)C2)C1 [Vincristine sulfate]	3
O=c1[nH]cc(F)c(=O)[nH]1 [5-Fluorouracil]	2
OC[C@H]1O[C@@H](n2cnc3c2N=CNC[C@H]3O)C[C@@H]1O [2′-deoxycoformycin]	2
COc1cccc2c1C(=O)c1c(O)c3c(c(O)c1C2=O)C[C@@](O)(C(=O)CO)C[C@@H]3O[C@H]1C[C@H](N)[C@H](O)[C@H](C)O1 [Adriamycin]	2

====

# Tested on: 60 cancer cell lines (NCI 60 cancer cell line series)
# method summary: NCI-DTP in vitro cancer screen, sulforhodamine B (SRB) growth inhibition, 48 hour exposure
# Format: cell-based, human
# test settings: Leukemia MOLT-4 (CL7006)
Where a name gives a salt, the structure may show the parent alone.
Overview of reported classification of cell line as Low(1), Medium(2) or High(3) sensitivity to compound across a group of molecules:
result type: classification of cell line as Low(1), Medium(2) or High(3) sensitivity to compound

molecule	reported measurement
COc1cc([C@@H]2c3cc4c(cc3[C@@H](O[C@@H]3O[C@@H]5CO[C@@H](C)O[C@H]5[C@H](O)[C@H]3O)[C@H]3COC(=O)[C@H]23)OCO4)cc(OC)c1O [Etoposide]	3
CC[C@@]1(O)C(=O)OCc2c1cc1n(c2=O)Cc2cc3c(CN(C)C)c(O)ccc3nc2-1 [Topotecan]	3
O=C1c2c(O)ccc(O)c2C(=O)c2c(NCCNCCO)ccc(NCCNCCO)c21 [Mitoxantrone]	3
COc1cccc2c1C(=O)c1c(O)c3c(c(O)c1C2=O)C[C@@](O)(C(=O)CO)C[C@@H]3O[C@H]1C[C@H](N)[C@H](O)[C@H](C)O1 [Adriamycin]	3
NC(=O)NO [Hydroxyurea]	3
O=c1[nH]cc(F)c(=O)[nH]1 [5-Fluorouracil]	2
Sc1ncnc2nc[nH]c12 [6-mercaptopurine]	2
OC[C@H]1O[C@@H](n2cnc3c2N=CNC[C@H]3O)C[C@@H]1O [2′-deoxycoformycin]	2
COc1cc([C@@H]2c3cc4c(cc3[C@@H](O[C@@H]3O[C@@H]5CO[C@@H](c6cccs6)O[C@H]5[C@H](O)[C@H]3O)[C@H]3COC(=O)[C@H]23)OCO4)cc(OC)c1O [Teniposide]	3
CC[C@]1(O)C[C@@H]2CN(CCc3c([nH]c4ccccc34)[C@@](C(=O)OC)(c3cc4c(cc3OC)N(C)[C@H]3[C@@](O)(C(=O)OC)[C@H](OC(C)=O)[C@]5(CC)C=CCN6CC[C@]43[C@@H]65)C2)C1 [Vinblastine sulfate]	2
COc1cccc2c1C(=O)c1c(O)c3c(c(O)c1C2=O)C[C@@](O)(C(C)=O)C[C@@H]3O[C@H]1C[C@H](N)[C@H](O)[C@H](C)O1 [Daunorubicin]	3
N[C@@H](Cc1ccc(N(CCCl)CCCl)cc1)C(=O)O [Melphalan]	3
CC[C@]1(O)C[C@H]2CN(CCc3c([nH]c4ccccc34)[C@@](C(=O)OC)(c3cc4c(cc3OC)N(C=O)[C@H]3[C@@](O)(C(=O)OC)[C@H](OC(C)=O)[C@]5(CC)C=CCN6CC[C@]43[C@@H]65)C2)C1 [Vincristine sulfate]	3

====

# Tested on: 60 cancer cell lines (NCI 60 cancer cell line series)
# method summary: NCI-DTP in vitro cancer screen, sulforhodamine B (SRB) growth inhibition, 48 hour exposure
# Assay type: cell-based, human
# test settings: cell line Renal CAKI-1, CL9015
Counter-ions that a name gives are not always drawn.
Overview of reported sensitivity class Renal CAKI-1 CL9015 across a group of molecules:

molecule	sensitivity class Renal CAKI-1 CL9015
CC[C@]1(O)C[C@@H]2CN(CCc3c([nH]c4ccccc34)[C@@](C(=O)OC)(c3cc4c(cc3OC)N(C)[C@H]3[C@@](O)(C(=O)OC)[C@H](OC(C)=O)[C@]5(CC)C=CCN6CC[C@]43[C@@H]65)C2)C1 [Vinblastine sulfate]	2
COc1cccc2c1C(=O)c1c(O)c3c(c(O)c1C2=O)C[C@@](O)(C(C)=O)C[C@@H]3O[C@H]1C[C@H](N)[C@H](O)[C@H](C)O1	2
COc1cccc2c1C(=O)c1c(O)c3c(c(O)c1C2=O)C[C@@](O)(C(=O)CO)C[C@@H]3O[C@H]1C[C@H](N)[C@H](O)[C@H](C)O1	2
O=C1c2c(O)ccc(O)c2C(=O)c2c(NCCNCCO)ccc(NCCNCCO)c21	3
N[C@@H](Cc1ccc(N(CCCl)CCCl)cc1)C(=O)O	3

====

# Test system: 60 cancer cell lines (NCI 60 cancer cell line series)
# method summary: NCI-DTP in vitro cancer screen, sulforhodamine B (SRB) growth inhibition, 48 hour exposure
# Assay type: cell-based, human
# test settings: Melanoma SK-MEL-28 (CL10008)
# Description: Cancer Cell Line Preparation. Sixty cancer cell lines were obtained from the National Cancer Institute Developmental Therapeutics Program (NCI-DTP). […] No-drug, no-cell and no-growth controls are included. […] From dose response curves based on the SRB data, various parameters can be determined. […] More precisely, the quantity used in the calculation to be described is the potency measure -log{GI50}. […]
Structures can show the parent of a compound that is named as a salt.
result type: classification of cell line as Low(1), Medium(2) or High(3) sensitivity to compound

compound	reported measurement
COc1cccc2c1C(=O)c1c(O)c3c(c(O)c1C2=O)C[C@@](O)(C(C)=O)C[C@@H]3O[C@H]1C[C@H](N)[C@H](O)[C@H](C)O1 [Daunorubicin]	1
CN(Cc1cnc2nc(N)nc(N)c2n1)c1ccc(C(=O)N[C@@H](CCC(=O)O)C(=O)O)cc1 [Methotrexate]	1
CC[C@]1(O)C[C@@H]2CN(CCc3c([nH]c4ccccc34)[C@@](C(=O)OC)(c3cc4c(cc3OC)N(C)[C@H]3[C@@](O)(C(=O)OC)[C@H](OC(C)=O)[C@]5(CC)C=CCN6CC[C@]43[C@@H]65)C2)C1 [Vinblastine sulfate]	2
